// molecules with pIC50 on Tyrosine-protein kinase JAK2 (Homo sapiens), multi-source literature
pIC50: −log10 of the molar value.
MEASURED_QUANTITY: pIC50

• CCOC(=O)Cn1cc(Nc2ncc3ccn(Cc4csc(C)n4)c3n2)cn1 = > 7.00
• COc1ccccc1Nc1ncc2ccn(Cc3cccnc3N(C)S(C)(=O)=O)c2n1 = < 6.00
• Cc1ccc(OC[C@H](O)CNc2ccnc(O)c2-c2nc3cc4c(cc3[nH]2)C(=O)N(C2CCN(C)CC2)C4=O)c2c1CCC2 = 5.30 to 6.30
• CCN1CC(CCF)(n2cc(-c3nc(-c4cnn(C)c4)cc4nccn34)cn2)C1 = < 6.00
• CNC(=O)c1coc(-c2cnc3[nH]ccc3c2N[C@H]2C[C@@H](C)CN(C(=O)CC#N)C2)n1 = 6.00 to 7.00
• CN(c1ncnc2[nH]ccc12)N1CCCC(CC(=O)NCC(F)(F)F)C1 (stereo not shown) = < 6.00
• CCOC(=O)Cn1cc(Nc2ncc3ccn(C[C@H](CC)C(C)C)c3n2)cn1 = > 7.00
• N#CCC1(n2cc(-c3c(F)cnc4[nH]ccc34)cn2)CN(C2CCN(C(=O)c3ccc(O)cc3F)CC2)C1 = ≥ 8.00
• COc1cnc(Nc2ccc(C(=O)N(C)C)cc2)nc1-c1cnn(C(CC#N)C2CCCC2)c1 (racemic) = > 7.00
• N#CCC(=O)N1CCN(n2cnc3cnc4[nH]ccc4c32)CC1 = 6.82
• O[C@H]1CC[C@@H](Nc2c(-c3ccccn3)cnc3[nH]ccc23)C1 = 6.00 to 7.00
• N#CCCN1CCC[C@@H](Nc2c(-c3ncco3)cnc3[nH]ccc23)C1 = 7.00 to 8.00
• N#CCC1(n2cc(-c3ccnc(Nc4ccc(-c5cnco5)cc4)n3)cn2)CC(C#N)C1 (single isomer, unassigned) = > 7.00
• COc1ccc(-c2cc(C(N)=O)c3[nH]c4cc(C(=O)N5CCN(C)CC5)ccc4c3c2)cc1F = 8.22
• C[C@H](O)C(=O)N1CC[C@H](Oc2ccc(-c3ncnc(Nc4ccc(N5CCN(C6COC6)CC5=O)cc4)n3)cc2C#N)[C@H](F)C1 = ≤ 6.00
• N#CC[C@@H]1CC[C@H](n2c(CO)nc3cnc4ccoc4c32)CO1 = < 6.00
